EXPERIMENT NOTES: Physical form of choline-based ionic liquids at room temperature
Format: physicochemical
TEST PARAMETERS: cation:anion 2:1, room temperature
MEASUREMENT TYPE: Physical Form (Ratios Listed as Cation:Anion)

1. O=P(O)(O)O [Phosphoric Acid] = Liquid
2. CCCCCCCCCC(=O)O [Decanoic Acid] = Liquid
3. CC(C)=CCCC(C)CC(=O)O (centres unmarked) [Citronellic Acid] = Liquid at 2:1, 1:1, 1:2
4. O=C(O)/C=C/C(=O)O [Fumaric Acid] = Liquid

Fill in the blank: the reported Physical Form (Ratios Listed as Cation:Anion) of O=C(O)CC(O)C(=O)O (centres unmarked) [Malic Acid] is ____.
Liquid at 2:1, 1:1

Try CCC(=O)O [Propionic Acid] next.
Liquid at 2:1, 1:1

Try O=C(O)CC(O)(CC(=O)O)C(=O)O [Citric Acid] next.
Liquid

Try O=C(O)CCC(=O)O [Succinic Acid] next.
Liquid at 2:1, 1:1, 1:2

Try O=C(O)CCCCCC(=O)O [Pimelic Acid] next.
Liquid at 2:1, 1:1

Try C/C(=C\C(=O)O)C(=O)O [Mesaconic Acid] next.
Liquid

Try O=C(O)CO [Glycolic Acid] next.
Liquid at 2:1, 1:1

---

EXPERIMENT NOTES: Physical form of choline-based ionic liquids at room temperature
Format: physicochemical
TEST PARAMETERS: cation:anion 1:1, room temperature
MEASUREMENT TYPE: Physical Form (Ratios Listed as Cation:Anion)

1. O=C(O)CC(O)(CC(=O)O)C(=O)O = Solid
2. O=C(O)/C=C/C(=O)O = Solid

---

EXPERIMENT NOTES: Physical form of choline-based ionic liquids at room temperature
Format: physicochemical
TEST PARAMETERS: cation:anion 1:1, room temperature
MEASUREMENT TYPE: Physical Form (Ratios Listed as Cation:Anion)

Below are worked cases with known answers.
1) CCCCCCC/C=C/C(=O)O [Trans-2-Decenoic Acid] = Solid at 1:1, 1:2
2) CC(=O)CCC(=O)O [Levulinic Acid] = Liquid at 1:1, 1:2
3) CC(CCC(C(=O)O)C(C)CC(C)(C)C)CC(C)(C)C (centres unmarked) = Solid at 1:1
4) O=C(O)CCCC(=O)O [Glutaric Acid] = Liquid at 2:1, 1:1
5) CCCCCCCCCCCC(=O)O [Lauric Acid] = Solid at 1:1, 1:2
6) COc1cc(/C=C/C(=O)O)ccc1O [Trans-Ferulic Acid] = Solid at 1:1
7) COc1cc(C(=O)O)ccc1O [Vanillic Acid] = Solid at 1:1
8) O=C(O)CC(=O)O [Malonic Acid] = Liquid at 1:1
9) Cc1ccc(S(=O)(=O)O)cc1 [p-Toluenesulfonic Acid] = Solid
10) CCCCCCCCC(CCCCCC)C(=O)O (centres unmarked) [2-Hexyldecanoic Acid] = Liquid at 1:1

Fill in the blank: the reported Physical Form (Ratios Listed as Cation:Anion) of CCCCCCCCCC(=O)O [Decanoic Acid] is ____.
Solid

---

EXPERIMENT NOTES: Physical form of choline-based ionic liquids at room temperature
Format: physicochemical
TEST PARAMETERS: cation:anion 1:2, room temperature
MEASUREMENT TYPE: Physical Form (Ratios Listed as Cation:Anion)

Below are worked cases with known answers.
1. CCCCCC(=O)O [Hexanoic Acid] = Liquid at 1:1, 1:2
2. CC(C)=CCC/C(C)=C/C(=O)O [Geranic Acid] = Liquid at 1:1, 1:2
3. CCCCCC[C@@H](O)C/C=C\CCCCCCCC(=O)O [Ricinoleic Acid] = Liquid at 1:1, 1:2
4. CCCCCCCC(=O)O [Octanoic Acid] = Solid

Pending compound:
Fill in the blank: the reported Physical Form (Ratios Listed as Cation:Anion) of C/C=C/C=C/C(=O)O [Sorbic Acid] is ____.
Liquid at 1:1, 1:2

Values were extracted from patent US20240130994A1.
